Molecular target: Multidrug efflux pump subunit AcrB (Escherichia coli (strain K12))
Assay: Inhibition of AcrB in Escherichia coli BW25113 assessed as potentiation of tetraphenylphosphonium induced antibacterial activity by measuring tetraphenylphosphonium MIC at 256 ug/ml measured after 18 hrs by checkerboard titration method (reference value: 1024 ug/ml)
Settings: dose 256.0 µg/ml
MEASURE NAME: MIC (µg/mL)
Give the value, in units of µg/mL, as a plain number.

[[record]]
chem_smiles = "Oc1ccc(CCCCCCc2ccc(O)c(O)c2)cc1O"
recorded_measurement = 512

[[record]]
chem_smiles = "C[C@H](Cc1ccc(O)c(O)c1)[C@@H](C)Cc1ccc(O)c(O)c1"
recorded_measurement = 64

[[record]]
chem_smiles = "Oc1ccc(CCCCc2ccc(Cl)cc2)cc1O"
recorded_measurement = 512


[in] Recorded MIC for Oc1ccc(CCCCc2ccccc2O)cc1O , please?
[out] 512

----------
MIC overview
Target: Multidrug efflux pump subunit AcrB (Escherichia coli (strain K12))
Sequence (whole entry): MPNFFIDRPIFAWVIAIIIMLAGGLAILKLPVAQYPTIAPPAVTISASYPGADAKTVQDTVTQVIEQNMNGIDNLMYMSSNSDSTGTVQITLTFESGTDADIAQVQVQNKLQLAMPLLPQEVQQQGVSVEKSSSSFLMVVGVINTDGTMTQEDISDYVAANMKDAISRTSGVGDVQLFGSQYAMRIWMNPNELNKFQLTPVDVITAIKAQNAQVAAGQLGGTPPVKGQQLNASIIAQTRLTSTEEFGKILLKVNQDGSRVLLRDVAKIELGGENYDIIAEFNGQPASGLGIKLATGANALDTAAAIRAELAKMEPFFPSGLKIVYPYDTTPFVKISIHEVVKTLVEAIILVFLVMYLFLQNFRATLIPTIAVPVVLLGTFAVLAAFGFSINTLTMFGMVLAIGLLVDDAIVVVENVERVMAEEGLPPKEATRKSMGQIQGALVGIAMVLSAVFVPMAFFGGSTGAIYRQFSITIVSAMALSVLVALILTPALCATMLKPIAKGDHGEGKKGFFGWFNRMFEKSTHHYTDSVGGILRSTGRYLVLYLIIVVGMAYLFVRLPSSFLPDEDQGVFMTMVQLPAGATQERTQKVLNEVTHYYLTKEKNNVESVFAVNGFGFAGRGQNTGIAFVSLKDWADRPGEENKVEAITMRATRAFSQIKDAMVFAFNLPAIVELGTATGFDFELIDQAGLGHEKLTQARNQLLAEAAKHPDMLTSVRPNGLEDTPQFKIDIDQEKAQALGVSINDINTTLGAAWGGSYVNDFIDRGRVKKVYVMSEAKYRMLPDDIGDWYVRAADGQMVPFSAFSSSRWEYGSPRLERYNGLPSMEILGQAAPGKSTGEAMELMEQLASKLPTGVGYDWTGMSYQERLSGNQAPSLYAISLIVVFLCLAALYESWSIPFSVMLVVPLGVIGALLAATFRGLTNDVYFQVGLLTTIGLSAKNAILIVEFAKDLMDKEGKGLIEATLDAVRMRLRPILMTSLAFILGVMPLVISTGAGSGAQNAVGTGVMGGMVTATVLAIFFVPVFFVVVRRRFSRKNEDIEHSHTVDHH
Assay: Inhibition of AcrB in Escherichia coli BW25113 assessed as potentiation of chloramphenicol induced antibacterial activity by measuring chloramphenicol MIC at 16 ug/ml measured after 18 hrs by checkerboard titration method (reference value: 8 ug/ml)
Settings: dose 16.0 µg/ml
Give the value, in units of µg/mL, as a plain number.

// worked examples, MIC included
[[record]]
chem_smiles = "Oc1ccc(CCCc2ccc(O)c(O)c2)cc1O"
recorded_measurement = 8

[[record]]
chem_smiles = "Nc1ccc(C(=O)NCCc2ccc(O)c(O)c2)cc1"
recorded_measurement = 4

[[record]]
chem_smiles = "Cc1ccc(C(=O)NCCc2ccc(O)c(O)c2)cc1"
recorded_measurement = 8

[[record]]
chem_smiles = "O=C(NCCc1ccc(O)c(O)c1)c1cc(O)c(O)c(O)c1"
recorded_measurement = 4

[[record]]
chem_smiles = "Oc1ccc(CCCCCc2ccc(O)c(O)c2)cc1O"
recorded_measurement = 8

[[record]]
chem_smiles = "Oc1ccc(CCCCc2ccc(O)c(O)c2)cc1O"
recorded_measurement = 8

[[record]]
chem_smiles = "Oc1ccc(CCCCc2ccc(Cl)cc2)cc1O"
recorded_measurement = 16

[[record]]
chem_smiles = "Oc1ccc(CCCCCCCc2ccc(O)c(O)c2)cc1O"
recorded_measurement = 8


[in] Recorded MIC for Oc1ccc(CCCCCCc2ccc(O)c(O)c2)cc1O , please?
[out] 8

----------
MIC overview
Molecular target: Multidrug efflux pump subunit AcrB (Escherichia coli (strain K12)) (UniProt P31224)
Experiment: Inhibition of AcrB in Escherichia coli BW25113 assessed as potentiation of levofloxacin induced antibacterial activity by measuring levofloxacin MIC at 128 ug/ml measured after 18 hrs by checkerboard titration method (reference value: 0.06 ug/ml)
Conditions: dose 128.0 µg/ml
Hi, when you answer, please include the unit after the number. Thanks!

[in] Recorded MIC for O=C(NCCc1ccc(O)c(O)c1)c1ccc(C(F)(F)F)cc1 , please?
[out] 0.03 µg/mL

[in] And then Oc1ccc(CCCCCCCc2ccc(O)c(O)c2)cc1O , what is it?
[out] 0.06 µg/mL

[in] And then Oc1ccc(CCCCc2ccc(O)c(O)c2)cc1O , what is it?
[out] 0.06 µg/mL

[in] And then Oc1ccc(CCCc2ccc(O)c(O)c2)cc1O , what is it?
[out] 0.06 µg/mL

[in] And then Oc1ccc(CCCCc2ccccc2O)cc1O , what is it?
[out] 0.06 µg/mL

[in] And then Oc1ccc(CCCCc2ccc(Br)cc2)cc1O , what is it?
[out] 0.06 µg/mL

[in] And then Nc1ccccc1C(=O)NCCc1ccc(O)c(O)c1 , what is it?
[out] 0.06 µg/mL

----------
Experiment: Growth inhibition of Escherichia coli BW25113 expressing AcrB at 512 ug/ml after 18 hrs by broth microdilution assay
Settings: dose 512 µg/ml
MEASURE NAME: growth inhibition (GI)

// worked examples, growth inhibition (GI) included
[[record]]
chem_smiles = "Oc1ccc(CCCc2ccc(O)c(O)c2)cc1O"
measure_name = "growth inhibition (GI)"
recorded_measurement = "Non-Toxic"

[[record]]
chem_smiles = "Oc1ccc(CCCCc2ccc(O)c(O)c2)cc1O"
measure_name = "growth inhibition (GI)"
recorded_measurement = "Non-Toxic"

[[record]]
chem_smiles = "Nc1ccccc1C(=O)NCCc1ccc(O)c(O)c1"
measure_name = "growth inhibition (GI)"
recorded_measurement = "Non-Toxic"

[[record]]
chem_smiles = "Cn1cc(CCCCc2ccc(O)c(O)c2)c2ccccc21"
measure_name = "growth inhibition (GI)"
recorded_measurement = "Non-Toxic"


[in] Recorded growth inhibition (GI) for Oc1ccc(CCCCc2ccc(-c3ccccc3)cc2)cc1O , please?
[out] Non-Toxic

[in] And then Oc1ccc(CCCCc2ccc(F)cc2)cc1O , what is it?
[out] Non-Toxic

[in] And then CC(C)(C)c1ccc(C(=O)NCCc2ccc(O)c(O)c2)cc1 , what is it?
[out] Non-Toxic

[in] And then O=C(NCCc1ccc(O)c(O)c1)c1ccccc1O , what is it?
[out] Non-Toxic

[in] And then Nc1ccc(CCCCc2ccc(O)c(O)c2)cc1 , what is it?
[out] Non-Toxic

[in] And then CC(C)c1ccc(CCCCc2ccc(O)c(O)c2)cc1 , what is it?
[out] Non-Toxic

----------
MIC overview
Molecular target: Multidrug efflux pump subunit AcrB (Escherichia coli (strain K12)) (UniProt P31224)
Sequence (whole entry): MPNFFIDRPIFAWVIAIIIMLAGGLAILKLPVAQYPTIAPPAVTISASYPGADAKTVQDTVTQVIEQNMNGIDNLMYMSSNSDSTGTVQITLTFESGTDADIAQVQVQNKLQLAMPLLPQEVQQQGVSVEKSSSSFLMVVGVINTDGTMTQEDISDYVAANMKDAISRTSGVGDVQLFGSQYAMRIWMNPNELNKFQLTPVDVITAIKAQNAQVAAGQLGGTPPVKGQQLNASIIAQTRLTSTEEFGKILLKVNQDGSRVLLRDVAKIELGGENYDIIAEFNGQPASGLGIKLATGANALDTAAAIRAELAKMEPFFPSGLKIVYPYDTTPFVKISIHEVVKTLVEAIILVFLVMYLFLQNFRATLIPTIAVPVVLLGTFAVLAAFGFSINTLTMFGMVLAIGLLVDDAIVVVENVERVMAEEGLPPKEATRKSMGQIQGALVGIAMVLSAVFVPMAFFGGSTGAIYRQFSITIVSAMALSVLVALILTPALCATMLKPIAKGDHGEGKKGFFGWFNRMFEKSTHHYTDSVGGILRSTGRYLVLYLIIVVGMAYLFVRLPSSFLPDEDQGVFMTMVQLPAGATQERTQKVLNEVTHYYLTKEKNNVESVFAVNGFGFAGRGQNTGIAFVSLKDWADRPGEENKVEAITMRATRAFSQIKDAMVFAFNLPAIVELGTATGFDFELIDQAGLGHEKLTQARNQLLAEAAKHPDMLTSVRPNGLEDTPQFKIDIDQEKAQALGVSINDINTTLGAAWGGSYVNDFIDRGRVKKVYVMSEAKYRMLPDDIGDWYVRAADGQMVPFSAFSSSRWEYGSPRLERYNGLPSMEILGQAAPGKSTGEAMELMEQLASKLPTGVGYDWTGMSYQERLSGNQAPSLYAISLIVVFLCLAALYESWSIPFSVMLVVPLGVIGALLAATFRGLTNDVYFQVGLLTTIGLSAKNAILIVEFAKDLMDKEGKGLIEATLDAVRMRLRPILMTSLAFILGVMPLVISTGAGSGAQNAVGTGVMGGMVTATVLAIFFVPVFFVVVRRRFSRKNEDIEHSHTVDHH
Experiment: Inhibition of AcrB in Escherichia coli BW25113 assessed as potentiation of levofloxacin induced antibacterial activity by measuring levofloxacin MIC at 128 ug/ml measured after 18 hrs by checkerboard titration method (reference value: 0.06 ug/ml)
Details: dose 128.0 µg/ml
Give the value, in units of mg/L, as a plain number.

[[record]]
chem_smiles = "O=C(NCCc1ccc(O)c(O)c1)c1ccc(O)c(O)c1"
measure_name = "MIC"
recorded_measurement = 0.06

[[record]]
chem_smiles = "Oc1ccc(CCCCc2ccc(Cl)cc2)cc1O"
measure_name = "MIC"
recorded_measurement = 0.06

[[record]]
chem_smiles = "Nc1cc(N)cc(C(=O)NCCc2ccc(O)c(O)c2)c1"
measure_name = "MIC"
recorded_measurement = 0.06

[[record]]
chem_smiles = "Nc1ccc(C(=O)NCCc2ccc(O)c(O)c2)cc1"
measure_name = "MIC"
recorded_measurement = 0.06

[[record]]
chem_smiles = "O=C(NCCc1ccc(O)c(O)c1)c1ccc(Br)cc1"
measure_name = "MIC"
recorded_measurement = 0.06

[[record]]
chem_smiles = "Oc1ccc(CCCCCc2ccc(O)c(O)c2)cc1O"
measure_name = "MIC"
recorded_measurement = 0.06

[[record]]
chem_smiles = "O=C(NCCc1ccc(O)c(O)c1)c1cc(O)c(O)c(O)c1"
measure_name = "MIC"
recorded_measurement = 0.03


Next, consider the following compound.
[in] Recorded MIC for C[C@H](Cc1ccc(O)c(O)c1)[C@@H](C)Cc1ccc(O)c(O)c1 , please?
[out] 0.03

Origin of values: ChEMBL document CHEMBL4680134
